assayed system: biotinylated human uPAR (human, UniProt Q03405 23-303, limits assumed, biotinylated (site not stated))
assay explanation: BLI (Octet) competition on biotinylated human uPAR; competitor (first antibody): M1
property: response in competition assay
// return a plain number; no unit text

# count of solved cases: 3
Query: response in competition assay; subject: M1 (antibody, V domains shown, Mouse hybridoma antibody; also called anti-uPAR antibody M1; parental M1) VH: EVQLQQSGAELVRPGASVKLSCTASGFNIKDEYINWVKQRPEQGLEWIGWIDPENGDTEYASKFQGKATITADTSSNTAYLQLSSLTSEDTAVYYCTGGNYVGWFPYWGQGTLVTVSA VL: QIVLTQSPAIMSASPGEKVTMTCSASSSVSYMHWYQQKSGTSPKRWLYDTSKLASGVPARFSGSGSGTSYSLTISSMEAEDAATYYCQQWSSNPPYTFGGGTKLEIK -0.0441

# input binder: M8 (antibody, V domains shown, Mouse hybridoma antibody; also called anti-uPAR antibody M8; parental M8) VH: QIQLVQSGPELKKPGETVKISCKASGNTFTDYGMNWVKQSPGKGLKWMGWINTNTGEPTYADDFKGRFAFSLETSASTAYLQINNLKNEDMATYFCAHYSFDYWGQGTTLTVSS VL: DIQMTQSPASLSVSVGQTVTITCRTSENIYSNLAWYQQKPGKSPQLLVYAATNLADGVPSRFSGSGSGTQYSLKINSLQSEDFGSYYCQHFWGTPWTFGGGTKLEIK ; wanted: its response in competition assay 0.302

Find the recorded response in competition assay belonging to M5 (antibody, V domains shown, Mouse hybridoma antibody; also called anti-uPAR antibody M5; parental M5) VH: QVQLKESGPGLVAPSQSLSITCTVSGFSLTNYGVHWVRQPPGKDLEWLVVIWSDGGTTYNSALKSRLSISKDNSKSQVFLKMNSLQTDDTAMYYCARGGRSDLFAYWGQGTLVTVSA VL: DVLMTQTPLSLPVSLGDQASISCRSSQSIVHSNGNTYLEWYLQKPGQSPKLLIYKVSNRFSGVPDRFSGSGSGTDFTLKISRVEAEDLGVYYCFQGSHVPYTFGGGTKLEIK and report it. 0.161

// next entry
Returns the measured response in competition assay for the input binder. Input: M43 (antibody, V domains shown, Mouse hybridoma antibody; also called anti-uPAR antibody M43; parental M43) VH: QVQLQQSGAELARPGASVNLSCKASGYTFTSYGISWVKQRTGQGLEWIGEIYPRSGNTYYNEKFKGKATLTADKSSRTAYMELRSLTSEDSAVYFCAGKDYGSTYADYWGQGTTLTVSS VL: QIVLTQSPAIMSASPGEKVTMTCSASSSVSSRYLHWYQQKSGASPKLWIYGTSNLASGVPARFSGSGSGTSYSLTINSVEAEDAATYYCQQYHSDPLTFGAGTKLELK 0.312
